Molecular target: PfSTOML (Plasmodium falciparum)
Sequence (O77376 entry or part of it): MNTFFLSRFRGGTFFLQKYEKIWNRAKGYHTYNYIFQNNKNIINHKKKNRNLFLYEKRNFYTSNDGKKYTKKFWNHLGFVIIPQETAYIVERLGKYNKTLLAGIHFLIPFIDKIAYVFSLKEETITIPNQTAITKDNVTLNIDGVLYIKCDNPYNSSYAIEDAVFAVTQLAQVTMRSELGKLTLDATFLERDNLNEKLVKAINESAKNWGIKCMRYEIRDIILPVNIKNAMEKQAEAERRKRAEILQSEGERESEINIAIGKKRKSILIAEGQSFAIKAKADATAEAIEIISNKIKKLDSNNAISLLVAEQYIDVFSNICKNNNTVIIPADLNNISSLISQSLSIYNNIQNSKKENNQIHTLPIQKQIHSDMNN
Assay: proteomic affinity chromatography with GNF179 beads, competition with free GNF179 (TMT MS/MS), parasite lysate
property-name: pKd
// field semantics: pKd = negative decimal log of concentration (mol/L)

For this compound ( CC1(C)c2nc(-c3ccc(F)cc3)c(Nc3ccc(Cl)cc3)n2CCN1C(=O)CN [GNF179] ), measured pKd is 5.50
